src = BigSolDB 2.1

# CONDITION: in water, 293.15 K
MEASURED PROPERTY: solubility (mole fraction)
Provide a numeric answer; units are not to be included.

The compound listed as O=C1CCC(c2ccccc2)=NN1 shows solubility (mole fraction) equal to 7.45e-07

====

# CONDITION: in water, 313.15 K
MEASURED PROPERTY: solubility (mole fraction)
Provide a numeric answer; units are not to be included.

The molecule listed as O=C1CCC(c2ccccc2)=NN1 shows solubility (mole fraction) equal to 1.64e-06

====

# CONDITION: in transcutol, 298.15 K
MEASURED PROPERTY: solubility (mole fraction)
Provide a numeric answer; units are not to be included.

The compound listed as O=C1CCC(c2ccccc2)=NN1 shows solubility (mole fraction) equal to 0.453

====

# CONDITION: in transcutol, 293.15 K
MEASURED PROPERTY: solubility (mole fraction)
Provide a numeric answer; units are not to be included.

The compound listed as O=C1CCC(c2ccccc2)=NN1 shows solubility (mole fraction) equal to 0.425

====

# CONDITION: in water, 298.15 K
MEASURED PROPERTY: solubility (mole fraction)
Provide a numeric answer; units are not to be included.

The compound listed as O=C1CCC(c2ccccc2)=NN1 shows solubility (mole fraction) equal to 9.1e-07
